Target: T1, mouse FGFR3 (mouse, UniProt Q61851 21-369)
T1 construct: extracellular domain; also called mFGFR3
T1 sequence (looked up): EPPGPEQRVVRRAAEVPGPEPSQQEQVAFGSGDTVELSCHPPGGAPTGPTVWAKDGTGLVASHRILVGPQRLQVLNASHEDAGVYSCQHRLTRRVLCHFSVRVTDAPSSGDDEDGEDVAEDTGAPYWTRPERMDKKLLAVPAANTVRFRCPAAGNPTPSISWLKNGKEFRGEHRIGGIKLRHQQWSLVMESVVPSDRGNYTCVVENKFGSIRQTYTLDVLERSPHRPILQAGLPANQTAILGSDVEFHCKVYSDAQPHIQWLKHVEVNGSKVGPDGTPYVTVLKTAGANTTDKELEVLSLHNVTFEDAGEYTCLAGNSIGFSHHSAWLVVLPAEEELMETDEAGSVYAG
Test: affinity table; method not restated (Biacore SPR per Example 1)
Recorded Kd values for a group of binders are listed next.

binder: KC18_Hu27 (antibody, human IgG1, kappa, V domains shown) VH: QVQLVQSGAEVVKPGATVKLSCKASGDTFTDFEIHWVKQAPGKGLEWIGDIDPETGGTAYNEKFQGRATLTADRSTSTAYMELSSLRSEDTAVYYCTRTYDGYPYAMDYWGQGTTVTVSS VL: DIVMTQSPSSLAVSLGERVTMNCKSSQSLLYSNNQKNYLAWYQQKPGQSPKLLIYWASTRESGVPDRFSGSGSGTDFTLTISSVQAEDVAVYYCQQYYSYRTFGGGTKLEIKR
reading unit: nM
Kd: 4.6

binder: KC18_Hu28 (antibody, human IgG1, kappa, V domains shown) VH: QVQLVQSGAEVVKPGASVKLSCKASGDTFTDFEIHWVKQAPGQGLEWIGDIDPETGGTAYNQKFQGRATLTADRSSSTAYMELSRLRSDDTAVYYCTRTYDGYPYAMDYWGQGTTVTVSS VL: DIVMTQSPSSLAVSLGERVTMNCKSSQSLLYSNNQKNYLAWYQQKPGQSPKLLIYWASTRESGVPDRFSGSGSGTDFTLTISSVQAEDVAVYYCQQYYSYRTFGGGTKLEIKR
reading unit: nM
Kd: 5.41

binder: KC18_Hu34 (antibody, human IgG1, kappa, V domains shown) VH: QVQLVQSGAEVVKPGASVKLSCKASGDTFTDFEIHWVKQAPGQGLEWIGDIDPETGGTAYNQKFQGRATLTADRSSSTAYMELSRLRSDDTAVYYCTRTYDGYPYAMDYWGQGTTVTVSS VL: DIVMTQSPLSLAVTVGEKVSISCRSSQSLLYSNNQKNYLAWYQQKPGQSPKLLIYWGSTRESGVPDRFSGSGSGTDFTLTISRVEAEDVGVYYCQQYYSYRTFGGGTKLEIKR
reading unit: nM
Kd: 8.14

binder: KC18 (antibody, V domains shown, Mouse hybridoma antibody; also called parental KC18 antibody) VH: QVQLQQSGAELVRPGASVTLSCKASGDTFTDFEIHWVKQTPVHGLEWIGDIDPETGGTAYNQKFRGRAMLTADRSSSTAYMELRSLTSEDSAVYYCTRTYDGYPYAMDYWGQGTSVTVSS VL: DIVMSQSPSSLAVSVGEKVTMSCKSSQSLLYSNNQKNYLAWYQQKPGQSPKLLIYWASTRESGVPDRFTGSGSGTDFTLTISSVKAEDLAVYYCQQYYSYRTFGGGTKLEIK
reading unit: nM
Kd: 3.78
